Target: pooled human IgG
PROPERTY: Enzyme Activity Endpoint Assay: IgG (ng/µL)
One number for each entry, in ng/µL.

Some solved cases for reference:
PROTEIN	VALUE UNITS	ASSAY VALUE
PRT-42 (protein) MANQEIRYSEVTPYHVTSVWTKGVTPPANFTQGEDVFHAPYVANQGWYDITKTFNGKDDLLCGAATAGNMLHWWFDQNKDQIDRYLEEHPEKQKINFNGEQMFDVKEAIDTKNDQLDSKLFEYFKEKAFPYLSTKHLGVFPDLVIDMFINGYRLSLTNHGPTPVKEGSKDPRGGFFDAVFTRGDQSKLLTSRHDFKEKNLKEISDLIKKELTEGKALGLSHTYANVRINHVINLWGADFDSNGNLKAIYVTDSDSNASIGMKKYFVGVNSAGKVAISAKEIKEDNIGAQVLGLFTLSTGQDSWNQTN	ng/µL	26
PRT-25 (protein) MANQEIRYSEVTPYHVTSVWTKGVTPPANFTQGEDVFHAPYVANQGWYDITKTFNGKDDLLCGAATAGNMLHWWFDQNKDQIERYLKEHPEKQKINFNGEQMFDVKEAIDTKDSQTDSKLFEYFKEKAFPYLSTKHLGVFPDHVIDMFINGYRLSLTNHGPTPVKEGSKDPRGGIFDAVFTRGDQSKLLTSRHDFKEKNLKEISDLIKQELTEGKALGLSHTYANVRINHVINLWGADFDSNGNLEAIYVTDSDSNASIGMKKYFVGVNSAGKVAISAKEIEEDNIGAQVLGLFTLSTGQDIWNQTN	ng/µL	20
PRT-27 (protein) MANQEIRYSEVTPYHVTSVWTKGVTPPANFTQGEDVFHAPYVANQGWYDITKTFNGKDDLLCGAATAGNMLHWWFDQNKDQIKRYLEEHPEKQKINFNGEQMFDVKEAIDTKNHQTDSKLFEYFKEKAFPYLSTKHLGVFPDHVIDMFINGYRLSLTNHGPTPVKEGSKDPRGGIFDAVFTRGDQSKLLTSRHDFKEKNLKEISDLIKKELTEGKALGLSHTYANVRINHVINLWGADFDSNGNLEAIYVTDSDSNASIGMKKYFVGVNSAGKVAISAKEIKEDNIGAQVLGLFTLSTGQDSWNQTN	ng/µL	14

Now, please, on to the next protein.
## Input Fill blank: measured Enzyme Activity Endpoint Assay: IgG of the protein PRT-277 (protein) MVTSVWTKGVTPPTDFIYGEDVLHAPYKAGQGWYDITKLFNGKDNLLCGAATAGNMLHWWFDQNKEQIENYLKKHPEKQKIIFNNQELFDLKAAIDTKDSQLDSKLFEYFLEKAFPNLSTKHLGVFPDHVIDMFINGYRLSLLNHGPTPVKRGSKDKRGGIFDAVFTRGVQSKLLTNRHDLKNKTLKEISDLIKQELTEGKALGISHTYANGRINHVINLWGADFDAEGNLEAIAVTDSDTNASIGMKKYFVGVNSSGKVAISAKEIEEDNIGAQVLGLFTLSTGQDIWNQTN is ____.
## Output 401
